For each entry below, report its inhibition value.
Biological target: Platelet-derived growth factor receptor beta (Homo sapiens);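 further: each value is a mean percent inhibition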
Details: at 1 µM
Your answer is read as %, so omit the unit and give the number.

Q: Using the record for O=C1Nc2ccc(C(=O)c3ccco3)cc2C1=Cc1cc(Cl)c(O)c(Cl)c1 , report its inhibition.
A: 18.5

Q: Using the record for [O-][S+]1CCN(Cc2ccc(-c3ccc4ncnc(Nc5ccc(OCc6ccccc6)c(F)c5)c4c3)o2)CC1 , report its inhibition.
A: 3.24

Q: Using the record for O=C1NC(=O)C(c2ccc(Cl)cc2)=C1Nc1ccc(Cl)c(C(=O)O)c1 , report its inhibition.
A: 6.67

Q: Using the record for COc1ccc(-c2coc3ncnc(N)c23)cc1 , report its inhibition.
A: 12.1

Q: Using the record for Cn1cc(C=C2C(=O)Nc3cccnc32)c2ccccc21 , report its inhibition.
A: 42

Q: Using the record for Cc1ccc(NC(=O)c2ccnc(N3CCCC3)c2)cc1-c1ccc(C(=O)NCC2CC2)cc1 , report its inhibition.
A: 13.4

Q: Using the record for O=C1NC(=O)C(c2ccccc2Cl)=C1Nc1cccc(O)c1 , report its inhibition.
A: 3.43

Q: Using the record for CCn1c(-c2nonc2N)nc2cncc(C(=O)N3CCNCC3)c21 , report its inhibition.
A: 4.8

Q: Using the record for COc1cc2ncn(-c3cc(OCc4ccccc4C(F)(F)F)c(C(N)=O)s3)c2cc1OC , report its inhibition.
A: 83.5

Q: Using the record for CCn1c(-c2nonc2N)nc2c(C#CC(C)(C)O)nc(OC[C@@H](N)c3ccccc3)cc21 , report its inhibition.
A: 50.8

Q: Using the record for O=C1NC(=O)C(c2cccc(Cl)c2)=C1Nc1ccc(O)c(Cl)c1 , report its inhibition.
A: 11.5

Q: Using the record for Nc1nc(-c2ccccn2)c(-c2ccc3ncccc3n2)s1 , report its inhibition.
A: 7.71

Q: Using the record for COc1cc2ncn(-c3cc(O[C@H](C)c4ccccc4Cl)c(C(N)=O)s3)c2cc1OC , report its inhibition.
A: 95.3

Q: Using the record for Cc1nnc(-c2ccc(C)c(-c3ccc(C(=O)Nc4cccc(C#N)c4)cc3)c2)o1 , report its inhibition.
A: 10.9

Q: Using the record for CCn1c(-c2nonc2N)nc2cnc(Oc3cccc(NC(=O)c4ccc(OCCN5CCOCC5)cc4)c3)cc21 , report its inhibition.
A: 9.39

Q: Using the record for Fc1cccc(COc2ccc(Nc3ncnc4cc(-c5ccc[nH]5)sc34)cc2Cl)c1 , report its inhibition.
A: 8.52

Q: Using the record for COc1cc2ncn(-c3cc(O[C@@H](C)c4ccccc4Cl)c(C(N)=O)s3)c2cc1OC , report its inhibition.
A: 68.2
